- System Tested: T1, Axl protein (human, UniProt P30530 26-451)
- T1 construct: extracellular domain; also called human Axl; hAxl
- T1 sequence (looked up): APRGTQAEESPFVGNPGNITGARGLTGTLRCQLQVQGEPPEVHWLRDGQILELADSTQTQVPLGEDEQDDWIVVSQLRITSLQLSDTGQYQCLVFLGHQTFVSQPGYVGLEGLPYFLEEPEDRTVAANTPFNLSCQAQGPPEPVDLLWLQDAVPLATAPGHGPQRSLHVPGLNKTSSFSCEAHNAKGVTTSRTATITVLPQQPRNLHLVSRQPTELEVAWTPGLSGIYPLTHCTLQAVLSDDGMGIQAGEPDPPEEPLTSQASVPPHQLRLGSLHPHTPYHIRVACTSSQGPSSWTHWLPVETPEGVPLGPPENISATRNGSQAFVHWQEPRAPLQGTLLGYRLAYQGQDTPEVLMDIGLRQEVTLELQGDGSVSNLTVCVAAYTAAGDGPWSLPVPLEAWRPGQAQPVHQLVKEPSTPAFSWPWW
- Assay Notes: ELISA, 1:9 dilution, pH 6.0 over pH 7.4
Value Kind: Affinity ELISA CPE mutant ratio (1:9, pH 6.0/7.4) (ratio)
Please state the figure in ratio; there is no need to write the unit.

Recorded Affinity ELISA CPE mutant ratio (1:9, pH 6.0/7.4), per entry:
| Binder | Recorded Measurement |
| --- | --- |
| HC-E102M (antibody, V domains shown) VH: EVQLVQSGAEVKKPGATVKISCKVSGYSFTGHTMNWIRQPPGKGLEWIGLIKPSNGGTSYNQKFKGRVTISADKSISTAYLQWSSLKASDTAMYYCAHGHYMSYFAMDYWGQGTLVTVSS VL: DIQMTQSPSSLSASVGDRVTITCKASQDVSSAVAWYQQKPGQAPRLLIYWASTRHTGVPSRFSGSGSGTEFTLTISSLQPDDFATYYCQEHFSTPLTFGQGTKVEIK | 2.36 |
| HC-E102A (antibody, V domains shown) VH: EVQLVQSGAEVKKPGATVKISCKVSGYSFTGHTMNWIRQPPGKGLEWIGLIKPSNGGTSYNQKFKGRVTISADKSISTAYLQWSSLKASDTAMYYCAHGHYASYFAMDYWGQGTLVTVSS VL: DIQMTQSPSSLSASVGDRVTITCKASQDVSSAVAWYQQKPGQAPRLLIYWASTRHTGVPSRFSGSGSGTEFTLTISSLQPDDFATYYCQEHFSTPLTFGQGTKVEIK | 1.69 |

Consider now this further binder.
[ask] Fill blank: measured Affinity ELISA CPE mutant ratio (1:9, pH 6.0/7.4) of the binder HC-A106G (antibody, V domains shown) VH: EVQLVQSGAEVKKPGATVKISCKVSGYSFTGHTMNWIRQPPGKGLEWIGLIKPSNGGTSYNQKFKGRVTISADKSISTAYLQWSSLKASDTAMYYCAHGHYESYFGMDYWGQGTLVTVSS VL: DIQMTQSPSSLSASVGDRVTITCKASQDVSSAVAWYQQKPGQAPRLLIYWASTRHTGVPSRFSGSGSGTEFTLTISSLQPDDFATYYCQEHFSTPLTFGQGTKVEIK is ____.
[reply] 2.2

Values compiled from patent US20190177417A1.
